TARGET OF ASSAY: Voltage-dependent T-type calcium channel subunit alpha-1H (Homo sapiens, UniProt O95180)
Sequence (O95180 whole entry, the tested form may be a part): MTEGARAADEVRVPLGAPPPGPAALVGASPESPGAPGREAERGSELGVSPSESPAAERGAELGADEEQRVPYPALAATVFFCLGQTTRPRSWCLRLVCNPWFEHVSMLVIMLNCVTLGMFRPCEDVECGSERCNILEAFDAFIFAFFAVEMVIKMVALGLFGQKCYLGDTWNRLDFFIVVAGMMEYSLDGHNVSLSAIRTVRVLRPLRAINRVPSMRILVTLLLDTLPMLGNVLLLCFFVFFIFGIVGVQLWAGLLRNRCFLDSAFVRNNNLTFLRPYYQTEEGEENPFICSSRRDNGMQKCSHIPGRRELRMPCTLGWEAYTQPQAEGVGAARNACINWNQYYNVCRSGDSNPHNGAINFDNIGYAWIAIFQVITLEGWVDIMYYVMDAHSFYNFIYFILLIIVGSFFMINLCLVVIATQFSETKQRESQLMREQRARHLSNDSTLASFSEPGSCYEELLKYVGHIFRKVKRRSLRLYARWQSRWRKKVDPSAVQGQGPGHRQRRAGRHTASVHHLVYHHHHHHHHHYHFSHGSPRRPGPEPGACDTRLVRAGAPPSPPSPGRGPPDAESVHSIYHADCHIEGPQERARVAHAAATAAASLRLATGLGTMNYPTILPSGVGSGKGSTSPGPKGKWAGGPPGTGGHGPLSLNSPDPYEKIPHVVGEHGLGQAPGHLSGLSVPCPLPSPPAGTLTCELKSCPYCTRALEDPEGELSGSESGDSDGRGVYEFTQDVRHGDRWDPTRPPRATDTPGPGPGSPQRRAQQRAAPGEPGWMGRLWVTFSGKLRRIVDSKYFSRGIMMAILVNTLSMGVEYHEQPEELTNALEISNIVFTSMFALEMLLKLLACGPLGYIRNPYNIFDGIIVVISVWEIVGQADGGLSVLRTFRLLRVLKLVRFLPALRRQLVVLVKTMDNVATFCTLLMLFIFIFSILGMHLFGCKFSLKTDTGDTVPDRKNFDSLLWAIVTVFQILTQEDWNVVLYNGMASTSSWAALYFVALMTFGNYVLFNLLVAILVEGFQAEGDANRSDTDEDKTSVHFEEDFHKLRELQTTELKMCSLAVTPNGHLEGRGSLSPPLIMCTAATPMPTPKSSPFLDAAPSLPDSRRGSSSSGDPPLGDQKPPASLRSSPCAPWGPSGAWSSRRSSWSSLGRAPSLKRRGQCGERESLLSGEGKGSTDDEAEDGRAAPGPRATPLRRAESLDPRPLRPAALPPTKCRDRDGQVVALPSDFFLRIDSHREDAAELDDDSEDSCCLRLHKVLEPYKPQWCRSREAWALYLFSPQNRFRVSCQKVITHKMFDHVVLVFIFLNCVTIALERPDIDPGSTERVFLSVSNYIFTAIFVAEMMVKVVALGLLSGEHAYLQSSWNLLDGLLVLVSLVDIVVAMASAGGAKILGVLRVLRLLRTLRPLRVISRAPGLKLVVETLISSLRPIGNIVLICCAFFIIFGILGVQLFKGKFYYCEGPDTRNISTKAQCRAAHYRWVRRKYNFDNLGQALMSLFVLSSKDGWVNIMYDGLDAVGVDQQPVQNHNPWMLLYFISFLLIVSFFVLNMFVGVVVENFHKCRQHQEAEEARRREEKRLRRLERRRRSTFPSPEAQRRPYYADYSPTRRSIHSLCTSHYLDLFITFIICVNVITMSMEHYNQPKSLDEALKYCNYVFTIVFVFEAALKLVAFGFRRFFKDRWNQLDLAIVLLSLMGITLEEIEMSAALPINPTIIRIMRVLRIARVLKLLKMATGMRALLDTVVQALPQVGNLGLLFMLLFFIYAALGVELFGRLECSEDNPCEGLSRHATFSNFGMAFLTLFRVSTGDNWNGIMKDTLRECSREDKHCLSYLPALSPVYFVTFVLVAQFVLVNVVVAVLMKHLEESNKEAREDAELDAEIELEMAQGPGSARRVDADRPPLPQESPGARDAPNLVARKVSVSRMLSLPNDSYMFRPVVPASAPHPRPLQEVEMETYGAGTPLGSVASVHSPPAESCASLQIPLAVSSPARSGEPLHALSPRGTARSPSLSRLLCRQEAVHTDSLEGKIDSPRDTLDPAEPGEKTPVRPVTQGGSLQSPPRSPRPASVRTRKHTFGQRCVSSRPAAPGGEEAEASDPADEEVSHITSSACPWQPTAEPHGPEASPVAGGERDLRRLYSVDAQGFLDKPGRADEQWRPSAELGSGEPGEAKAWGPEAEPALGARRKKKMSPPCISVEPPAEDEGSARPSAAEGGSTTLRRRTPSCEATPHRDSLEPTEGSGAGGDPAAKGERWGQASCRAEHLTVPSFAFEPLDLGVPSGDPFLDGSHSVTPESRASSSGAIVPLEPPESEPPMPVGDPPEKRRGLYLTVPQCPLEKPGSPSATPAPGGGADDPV
METHOD NOTES: Inhibition of GFP-fused Cav3.2-alpha1 (unknown origin) expressed in human tsA-201 cells at 10 uM at holding potential of -110 mV by whole cell patch clamp method relative to control
Assay type: cell-based
Below, each entry is listed alongside its reported inhibition.

Some molecules with known inhibition results, for comparison:
molecule="CCOC(=O)C1=C(C)NC(=O)N(CCC(=O)N/N=C2/C(=O)Nc3ccccc32)C1c1cccc([N+](=O)[O-])c1 (centres undefined)" target_of_assay="Voltage-dependent T-type calcium channel subunit alpha-1H (Homo sapiens, UniProt O95180)" endpoint_name=inhibition recorded_result=50%
molecule="CCOC(=O)C1=C(C)NC(=O)N(CCC(=O)NNC(=S)NC(c2ccccc2)c2ccccc2)C1c1cccc([N+](=O)[O-])c1 (centres undefined)" target_of_assay="Voltage-dependent T-type calcium channel subunit alpha-1H (Homo sapiens, UniProt O95180)" endpoint_name=inhibition recorded_result="70 to 95%"

Below: the item to evaluate.
Notebook entry, Voltage-dependent T-type calcium channel subunit alpha-1H (Homo sapiens, UniProt O95180) assay: inhibition of CCOC(=O)C1=C(C)NC(=O)N(CCC(=O)N/N=C2/SCC(=O)N2c2ccc(C)cc2)C1c1cccc([N+](=O)[O-])c1 (centres undefined) = ? 70 to 95%

* * *

TARGET OF ASSAY: Cav1.2 (voltage-dependent L-type calcium channel subunit alpha-1C) (Rattus norvegicus)
Sequence (P22002 whole entry, the tested form may be a part): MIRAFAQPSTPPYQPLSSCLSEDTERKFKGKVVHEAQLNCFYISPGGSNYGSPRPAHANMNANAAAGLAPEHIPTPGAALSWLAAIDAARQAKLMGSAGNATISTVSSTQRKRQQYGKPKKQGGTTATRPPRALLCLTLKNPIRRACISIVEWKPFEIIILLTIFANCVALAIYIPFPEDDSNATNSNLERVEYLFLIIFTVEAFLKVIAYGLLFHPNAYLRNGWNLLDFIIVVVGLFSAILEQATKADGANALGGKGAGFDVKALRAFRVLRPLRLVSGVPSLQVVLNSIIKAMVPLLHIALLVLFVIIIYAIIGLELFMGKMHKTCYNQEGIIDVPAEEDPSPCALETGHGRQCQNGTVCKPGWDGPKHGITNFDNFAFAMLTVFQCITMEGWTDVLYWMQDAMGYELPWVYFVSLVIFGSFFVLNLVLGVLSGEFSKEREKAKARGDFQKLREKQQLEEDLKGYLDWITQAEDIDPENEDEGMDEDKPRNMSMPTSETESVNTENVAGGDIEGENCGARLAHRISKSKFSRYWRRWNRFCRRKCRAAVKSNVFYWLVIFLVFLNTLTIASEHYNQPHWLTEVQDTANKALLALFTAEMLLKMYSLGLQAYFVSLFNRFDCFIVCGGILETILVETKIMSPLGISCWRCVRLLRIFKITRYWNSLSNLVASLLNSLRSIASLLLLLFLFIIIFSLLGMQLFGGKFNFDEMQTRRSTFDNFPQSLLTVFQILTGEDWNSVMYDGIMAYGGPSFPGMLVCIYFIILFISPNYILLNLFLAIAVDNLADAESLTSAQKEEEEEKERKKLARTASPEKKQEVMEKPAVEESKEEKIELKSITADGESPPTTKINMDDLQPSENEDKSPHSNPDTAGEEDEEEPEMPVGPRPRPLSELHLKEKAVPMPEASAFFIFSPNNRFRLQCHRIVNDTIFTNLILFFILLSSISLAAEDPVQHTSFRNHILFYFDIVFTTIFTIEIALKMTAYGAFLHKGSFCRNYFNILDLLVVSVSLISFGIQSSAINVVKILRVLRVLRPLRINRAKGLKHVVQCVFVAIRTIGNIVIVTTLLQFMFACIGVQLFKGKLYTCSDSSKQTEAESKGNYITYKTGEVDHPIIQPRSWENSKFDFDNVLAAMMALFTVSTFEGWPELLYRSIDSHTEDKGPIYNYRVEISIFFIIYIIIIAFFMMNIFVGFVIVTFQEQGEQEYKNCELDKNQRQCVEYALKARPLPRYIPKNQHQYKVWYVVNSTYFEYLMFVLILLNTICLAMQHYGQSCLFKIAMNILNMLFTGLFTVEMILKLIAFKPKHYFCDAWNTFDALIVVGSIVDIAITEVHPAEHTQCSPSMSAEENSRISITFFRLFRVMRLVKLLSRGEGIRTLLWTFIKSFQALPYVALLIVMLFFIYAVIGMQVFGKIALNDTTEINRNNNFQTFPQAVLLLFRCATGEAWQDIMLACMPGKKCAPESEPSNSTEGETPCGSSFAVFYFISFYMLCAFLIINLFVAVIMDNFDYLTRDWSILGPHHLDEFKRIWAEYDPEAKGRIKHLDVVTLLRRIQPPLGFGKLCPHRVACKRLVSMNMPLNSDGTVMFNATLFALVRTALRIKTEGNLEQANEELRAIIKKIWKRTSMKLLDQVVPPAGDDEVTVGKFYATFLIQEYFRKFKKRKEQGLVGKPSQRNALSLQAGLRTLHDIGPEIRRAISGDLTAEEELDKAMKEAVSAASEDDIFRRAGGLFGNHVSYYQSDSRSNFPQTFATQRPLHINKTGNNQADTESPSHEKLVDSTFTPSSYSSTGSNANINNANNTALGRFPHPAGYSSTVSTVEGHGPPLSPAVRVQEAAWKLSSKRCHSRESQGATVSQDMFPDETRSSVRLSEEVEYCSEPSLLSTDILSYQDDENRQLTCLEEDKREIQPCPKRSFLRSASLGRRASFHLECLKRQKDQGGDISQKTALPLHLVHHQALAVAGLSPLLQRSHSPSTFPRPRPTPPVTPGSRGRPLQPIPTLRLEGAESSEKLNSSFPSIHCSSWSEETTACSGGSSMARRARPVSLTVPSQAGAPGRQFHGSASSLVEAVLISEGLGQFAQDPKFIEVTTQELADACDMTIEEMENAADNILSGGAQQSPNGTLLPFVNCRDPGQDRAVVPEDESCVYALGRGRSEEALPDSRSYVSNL
METHOD NOTES: Inhibition of GFP-fused rat Cav1.2 expressed in human tsA-201 cells co-expressing Cavbeta1b/Cavalpha2delta1 assessed as tonic block at 10 uM at holding potential of -90 mV by whole cell patch clamp method relative to control
Format: cell-based
ENDPOINT NAME: inhibition at 10 µM

What inhibition at 10 µM value was documented for this compound, CCOC(=O)C1=C(C)NC(=O)N(CCC(=O)N/N=C/C(c2ccccc2)c2ccccc2)C1c1cccc([N+](=O)[O-])c1 (centres undefined) ? 60 to 85%

* * *

Below, each entry is listed alongside its reported pIC50.
TARGET OF ASSAY: Voltage-dependent T-type calcium channel subunit alpha-1H (Homo sapiens)
METHOD NOTES: Inhibition of GFP-fused Cav3.2-alpha1 (unknown origin) expressed in human tsA-201 cells at holding potential of -110 mV by whole cell patch clamp method
// field semantics: pIC50 = negative decimal log of concentration (mol/L)

compound="CCOC(=O)C1=C(C)NC(=O)N(CCC(=O)N/N=C/c2ccccc2)C1c1cccc([N+](=O)[O-])c1 (configuration not stated)" recorded_result=5.47

Below: the item to evaluate.
What pIC50 value was documented for this compound, CCOC(=O)C1=C(C)NC(=O)N(CCC(=O)NNC(=S)NC(c2ccccc2)c2ccccc2)C1c1cccc([N+](=O)[O-])c1 (configuration not stated) ? 6.47

* * *

TARGET OF ASSAY: Voltage-dependent T-type calcium channel subunit alpha-1H (Homo sapiens, UniProt O95180)
METHOD NOTES: Inhibition of GFP-fused Cav3.2-alpha1 (unknown origin) expressed in human tsA-201 cells at 10 uM at holding potential of -110 mV by whole cell patch clamp method relative to control
Format: cell-based
The source made the active and inactive calls. The rule behind the calls is not given here.
ENDPOINT NAME: inhibition

compound="CCOC(=O)C1=C(C)NC(=O)N(CCC(=O)N/N=C/c2ccccc2)C1c1cccc([N+](=O)[O-])c1 (stereo unspecified)" recorded_result="70 to 95%"
compound="CCOC(=O)C1=C(C)NC(=O)N(CCC(=O)N/N=C(/C)c2ccc(F)cc2)C1c1cccc([N+](=O)[O-])c1 (stereo unspecified)" recorded_result="70 to 95%"
compound="CCOC(=O)C1=C(C)NC(=O)N(CCC(=O)N/N=C(/C)C(c2ccccc2)c2ccccc2)C1c1cccc([N+](=O)[O-])c1 (stereo unspecified)" recorded_result=inactive
compound="CCOC(=O)C/C(C)=N\\NC(=O)CCN1C(=O)NC(C)=C(C(=O)OCC)C1c1cccc([N+](=O)[O-])c1 (stereo unspecified)" recorded_result=inactive
compound="CCOC(=O)C1=C(C)NC(=O)N(CCC(=O)N/N=C(/C)c2ccccc2)C1c1cccc([N+](=O)[O-])c1 (stereo unspecified)" recorded_result="70 to 95%"

Notebook entry, Voltage-dependent T-type calcium channel subunit alpha-1H (Homo sapiens, UniProt O95180) assay: inhibition of CCOC(=O)C1=C(C)NC(=O)N(CCC(=O)N/N=c2\scc(-c3ccc(F)cc3)n2-c2ccccc2)C1c1cccc([N+](=O)[O-])c1 (stereo unspecified) = ? inactive

Follow-up item: CCOC(=O)C1=C(C)NC(=O)N(CCC(=O)N/N=C/C(c2ccccc2)c2ccccc2)C1c1cccc([N+](=O)[O-])c1 (stereo unspecified) 70 to 95%

Follow-up item: CCOC(=O)C1=C(C)NC(=O)N(CCc2nnc(Nc3ccccc3)o2)C1c1cccc([N+](=O)[O-])c1 (stereo unspecified) 70 to 95%
